Target: Tyrosine-protein kinase receptor UFO (Homo sapiens)
Sequence (P30530 whole entry): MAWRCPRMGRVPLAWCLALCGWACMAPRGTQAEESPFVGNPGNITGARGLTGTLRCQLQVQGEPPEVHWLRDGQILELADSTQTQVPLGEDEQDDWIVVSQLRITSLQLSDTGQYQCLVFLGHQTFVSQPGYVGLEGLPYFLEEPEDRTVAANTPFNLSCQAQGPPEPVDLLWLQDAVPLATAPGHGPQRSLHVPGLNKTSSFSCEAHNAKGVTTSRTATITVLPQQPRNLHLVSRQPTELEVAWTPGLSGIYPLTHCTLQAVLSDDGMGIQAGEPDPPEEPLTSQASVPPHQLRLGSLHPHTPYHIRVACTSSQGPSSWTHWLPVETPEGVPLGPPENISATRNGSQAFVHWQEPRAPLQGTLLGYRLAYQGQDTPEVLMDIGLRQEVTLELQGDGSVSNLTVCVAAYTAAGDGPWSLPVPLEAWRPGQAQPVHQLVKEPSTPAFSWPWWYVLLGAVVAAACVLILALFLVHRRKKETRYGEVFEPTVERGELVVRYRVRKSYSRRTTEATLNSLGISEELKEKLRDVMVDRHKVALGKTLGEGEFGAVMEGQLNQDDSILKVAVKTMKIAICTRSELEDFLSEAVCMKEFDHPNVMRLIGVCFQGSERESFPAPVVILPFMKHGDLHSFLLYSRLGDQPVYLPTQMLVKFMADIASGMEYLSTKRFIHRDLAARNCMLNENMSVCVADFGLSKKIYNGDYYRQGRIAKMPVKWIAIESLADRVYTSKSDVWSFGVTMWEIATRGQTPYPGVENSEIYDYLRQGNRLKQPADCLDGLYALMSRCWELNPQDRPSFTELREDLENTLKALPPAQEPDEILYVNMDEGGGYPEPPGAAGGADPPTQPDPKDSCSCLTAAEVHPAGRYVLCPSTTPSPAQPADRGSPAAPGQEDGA
Assay: Inhibition of AXL (unknown origin) by LC-MS analysis
pIC50: −log10 of the molar value.
Parameter measured: pIC50

1: Cc1nn(C)c(C)c1-c1ccc(-c2nnc(N(C)Cc3ccc4nccn4c3)o2)c(Cl)c1
2: CN(Cc1ccc2nccn2c1)c1nnc(-c2ccc(-c3ccccc3F)cc2)o1
// compare measured pIC50 between 1 and 2 ; output the lower one Which one? Tell me its label.
2
(2: 5.80, 1: 7.10)

* * *

test: Photostability of compound assessed as half life; format: physicochemical
Parameter measured: half-life (days)

                                 smiles_str  parameter_measured  reported
0  Cc1cc(-c2c(C)nn(C)c2C)ccc1-c1nnc(N(C)Cc2ccc3ncc(-c4ccccc4)n3c2)o1           half-life      11.4

A: Cc1cc(-c2c(C)nn(C)c2C)ccc1-c1nnc(N(C)Cc2ccc3ncc(-c4cnn(C)c4)n3c2)o1
B: Cc1cc(-c2c(C)nn(C)c2C)ccc1-c1nnc(N(C)Cc2ccc3nccn3c2)o1
C: Cc1cc(-c2c(C)nn(C)c2C)ccc1-c1nnc(N(C)Cc2ccc3ncc(C(=O)N(C)C)n3c2)o1
Hi! Can you put these in order of half-life, lowest number first? Rank the items, then write their labels in that order.
B, A, C
(B: 2.88 days, A: 11.4 days, C: 17.8 days)

* * *

assay: Lipophilicity, log D of the compound at pH 7.4; type: physicochemical; details: buffer
Parameter measured: logD

Consider the following illustrative entries.
                                 smiles_str  reported
0  Cc1cc(-c2c(C)nn(C)c2C)ccc1-c1nnc(N(C)Cc2ccc3ncc(C4CCN(C)CC4)n3c2)o1       2.5
1  Cc1cc(-c2c(C)nn(C)c2C)ccc1-c1nnc(N(C)Cc2ccc3ncc(-c4cnn(C)c4)n3c2)o1         4
2  Cc1cc(-c2c(C)nn(C)c2C)cnc1-c1nnc(N(C)Cc2ccc3ncc(-c4ccc(CN(C)C)cn4)n3c2)o1         3

I: Cc1ncccc1-c1ccc(-c2nnc(N(C)Cc3ccc4nccn4c3)o2)cc1
II: Cc1cc(-c2c(C)nn(C)c2C)ccc1-c1nnc(N(C)Cc2ccc3ncc(-c4ccccc4)n3c2)o1
Would you kindly point out which of I and II has the smaller logD figure? Write down the label of the entry you select.
I

* * *

biological target: Tyrosine-protein kinase receptor UFO (Homo sapiens, UniProt P30530); assay: Inhibition of AXL (unknown origin) by LC-MS analysis
pIC50: −log10 of the molar value.
Parameter measured: pIC50

Example compounds with recorded pIC50:
                                 smiles_str  reported
0  Cc1cc(-c2cnn(C)c2C)ccc1-c1nnc(N(C)Cc2ccc3nccn3c2)o1      7.00
1  Cc1noc(C)c1-c1ccc(-c2nnc(N(C)Cc3ccc4nccn4c3)o2)cc1      4.50
2  COc1ccccc1-c1ccc(-c2nnc(N(C)Cc3ccc4nccn4c3)o2)cc1      5.80
3  Cc1nn(C)c(C)c1-c1ccc(-c2nnc(N(C)Cc3ccc4nccn4c3)o2)c(F)c1      5.90
4  Cc1cc(-c2c(C)nn(C)c2C#N)ccc1-c1nnc(N(C)Cc2ccc3nccn3c2)o1      7.40

a: COc1cc(-c2c(C)nn(C)c2C)ccc1-c1nnc(N(C)Cc2ccc3nccn3c2)o1
b: Cc1cc(-c2c(C)nn(C)c2C)ccc1-c1nnc(N(C)Cc2ccc3nccn3c2)o1
Looking only at measured pIC50, which entry is lower, a or b ? Response format: the label of the selected entry.
a

* * *

Molecular target: UniProt P30530
Sequence (P30530 whole entry): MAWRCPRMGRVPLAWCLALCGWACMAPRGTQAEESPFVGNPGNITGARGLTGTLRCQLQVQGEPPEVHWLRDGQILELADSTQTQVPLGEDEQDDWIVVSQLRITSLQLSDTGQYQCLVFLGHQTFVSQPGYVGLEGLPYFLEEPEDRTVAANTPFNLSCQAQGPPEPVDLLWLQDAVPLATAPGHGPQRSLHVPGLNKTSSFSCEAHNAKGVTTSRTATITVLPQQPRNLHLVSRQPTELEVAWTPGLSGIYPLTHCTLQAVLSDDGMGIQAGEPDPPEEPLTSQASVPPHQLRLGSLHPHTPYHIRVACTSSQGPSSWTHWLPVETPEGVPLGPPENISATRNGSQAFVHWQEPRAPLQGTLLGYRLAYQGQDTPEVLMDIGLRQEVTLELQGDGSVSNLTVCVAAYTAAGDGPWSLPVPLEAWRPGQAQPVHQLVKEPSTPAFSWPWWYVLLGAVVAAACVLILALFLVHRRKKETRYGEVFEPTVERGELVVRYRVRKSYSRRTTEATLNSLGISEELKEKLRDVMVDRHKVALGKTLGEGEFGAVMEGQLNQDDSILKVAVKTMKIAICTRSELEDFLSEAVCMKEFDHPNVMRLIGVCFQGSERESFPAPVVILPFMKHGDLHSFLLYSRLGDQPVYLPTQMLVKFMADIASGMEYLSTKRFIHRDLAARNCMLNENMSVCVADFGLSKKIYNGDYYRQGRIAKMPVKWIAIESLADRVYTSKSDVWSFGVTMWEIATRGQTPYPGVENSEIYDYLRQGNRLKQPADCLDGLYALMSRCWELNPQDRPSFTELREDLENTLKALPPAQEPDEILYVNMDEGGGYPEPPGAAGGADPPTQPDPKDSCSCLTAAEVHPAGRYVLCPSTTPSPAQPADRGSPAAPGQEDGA
Experiment: Inhibition of FLAG-tagged AXL (unknown origin) transfected in Cos-7 cells assessed as phosphorylation level incubated for 1 hr by ELISA
Assay type: cell-based
Parameter measured: IC50 (nM)

>>> df
                                 smiles_str  target_under_test  readout_unit  reported
0  Cc1cc(-c2c(C)nn(C)c2C)cnc1-c1nnc(N(C)Cc2ccc3ncc(-c4ccc(CN(C)C)cn4)n3c2)o1     UniProt P30530            nM       126
1  Cc1cc(-c2c(C)nc(C)n2C)ccc1-c1nnc(N(C)Cc2ccc3nccn3c2)o1     UniProt P30530            nM      5010
2  COc1cc(-c2c(C)nn(C)c2C)ccc1-c1nnc(N(C)Cc2ccc3nccn3c2)o1     UniProt P30530            nM      2000
3  Cc1cc(-c2c(C)nn(C)c2C)cnc1-c1nnc(N(C)Cc2ccc3ncc(-c4ccc(CN(C)C)cc4)n3c2)o1     UniProt P30530            nM       100
4  Cc1nn(C)c(C)c1-c1ccc(-c2nnc(N(C)Cc3ccc4nccn4c3)o2)c(Cl)c1     UniProt P30530            nM       794
5  Cc1nn(C)c(C)c1-c1ccc(-c2nnc(N(C)Cc3ccc4nccn4c3)o2)c(F)c1     UniProt P30530            nM      3160

A: Cc1cc(-c2c(C)nn(C)c2C)cnc1-c1nnc(N(C)Cc2ccc3ncc(-c4cnn(CCN(C)C)c4)n3c2)o1
B: Cc1cc(-c2c(C)nn(C)c2C)ccc1-c1nnc(N(C)Cc2ccc3ncc(-c4cnn(C)c4)n3c2)o1
C: Cc1cc(-c2c(C)nn(C)c2C#N)ccc1-c1nnc(N(C)Cc2ccc3nccn3c2)o1
Task field, ranking: reported IC50, descending order. Present the labels in the sequence the task asks for.
A, C, B
(A: 1000 nM, C: 398 nM, B: 63.1 nM)

1: Cc1cc(-c2cnn(C)c2C)ccc1-c1nnc(N(C)Cc2ccc3nccn3c2)o1
2: Cc1cc(-c2c(C)nn(C)c2C)cnc1-c1nnc(N(C)Cc2ccc3ncc(-c4cccc(CN(C)C)c4)n3c2)o1
3: Cc1nn(C)c(C)c1-c1ccc(-c2nnc(N(C)Cc3ccc4nccn4c3)o2)cc1
4: Cc1cc(-c2c(C)nn(C)c2C)ccc1-c1nnc(N(C)Cc2ccc3ncc(C4CCN(C)CC4)n3c2)o1
Sort these molecules on IC50 so the largest reading comes first. # format: label list in the order the request specifies
3, 4, 1, 2
(3: 3160 nM, 4: 1260 nM, 1: 794 nM, 2: 316 nM)
